Tested on: AI-2 activity of APEC O1
Experiment description: AI-2 bioluminescence indicator assay, APEC O1
Type: cell-based, avian pathogenic E. coli (APEC) O1
Protocol conditions: Escherichia coli, read-out: % Inhibtion of AI-2 activity, serotype O1, bioluminescence vs DMSO treated control
The label depends only on inhibition at 100 µM: yes if it is at least 50%, no if it is smaller.

>>> discrete_label("O=[N+]([O-])c1cccc(S(=O)(=O)Nc2ccc(Br)cc2)c1 [C6]")
"yes"
>>> discrete_label("Fc1ccc(CN2CCCN(Cc3nc(-c4ccc(C(F)(F)F)cc4)no3)CC2)cc1 [C9]")
"no"
>>> discrete_label("Cc1ccc(CN2CCN(CCCc3ccccc3)CC2)cc1 [C5]")
"no"
>>> discrete_label("Cc1ccccc1N1CCN(C2CCCN(C(=O)c3ccc(F)c(Cl)c3)C2)CC1 (stereo not shown) [C2]")
"yes"

Next:
*Q* Record CCc1ccccc1Nc1nc(-c2c(C)nc3ccccn23)cs1 [C8] ; criterion: inhibition at 100 µM no lower than 50%. Met?
*A* no

====

Test system: AI-2 activity of O109
Experiment description: AI-2 bioluminescence indicator assay, APEC O109
Assay type: cell-based, avian pathogenic E. coli (APEC) O109
Protocol conditions: Escherichia coli, read-out: % Inhibtion of AI-2 activity, serotype O109, bioluminescence vs DMSO treated control
Attribute: inhibition at 100 µM

*Q* Name the recorded inhibition at 100 µM for OCCC1CN(C2CCN(c3ccccc3)CC2)CCN1CCCc1ccccc1 (stereo not shown) [C10] .
*A* 57%

*Q* Item: Fc1ccc(CN2CCCN(Cc3nc(-c4ccc(C(F)(F)F)cc4)no3)CC2)cc1 [C9]
*A* 66%

*Q* Item: CCc1ccccc1Nc1nc(-c2c(C)nc3ccccn23)cs1 [C8]
*A* ≥ 75%

*Q* Item: Cc1ccccc1N1CCN(C2CCCN(C(=O)c3ccc(F)c(Cl)c3)C2)CC1 (stereo not shown) [C2]
*A* 57%

====

Attribute: inhibition at 100 µM
Test system: AI-2 activity of APEC O1
Experiment description: AI-2 bioluminescence indicator assay, APEC O1
Format: cell-based, avian pathogenic E. coli (APEC) O1
Protocol conditions: Escherichia coli, read-out: % Inhibtion of AI-2 activity, serotype O1, bioluminescence vs DMSO treated control

These solved cases illustrate the format of a correct answer.
>>> reported_measurement("OCCC1CN(C2CCN(c3ccccc3)CC2)CCN1CCCc1ccccc1 (centres unmarked)")
"64%"
>>> reported_measurement("COCCN1CCC(CN(Cc2ccncc2)Cc2ccccc2Cl)CC1")
"≥ 75%"
>>> reported_measurement("O=C(CCN1CCN(c2ccccc2F)CC1)Nc1ccc(Br)cc1")
"47%"

*Q* Name the recorded inhibition at 100 µM for NC(=O)c1ccccc1Nc1cccc(C(F)(F)F)c1 .
*A* 65%

*Q* Item: CS/C(N)=N/N=C/c1cc(C)ccc1O
*A* 63%
